experiment_description: Pharmacokinetics in rat plasma after single subcutaneous administration (LC-MS/MS, non-compartmental analysis)
Format: in vivo, Sprague-Dawley (SD) rats
condition_details: Sprague-Dawley, rat, in vivo, sc, 4 mg/kg, SD rats, single s.c. dose 4 mg/kg, plasma, LC-MS/MS, NCA, n = 5; read-out: AUC0–24 h
Positions of bridges follow the written chain, without caps; N, C: chain ends. Non-standard residues stand in square brackets, D forms with d. Residues, ends and D or L forms follow the SMILES beside them. *: point of attachment. X1 = CC[C@H](C)CCCCC(=O)*; Dab = NCC[C@H](N)C(=O)O
readout_name: AUC(0-t) (ng·h/mL)
Numbers only, in ng·h/mL.

Q. # AUC(0-t) lookup, item CC[C@H](C)CCCCC(=O)N[C@@H](CCN)C(=O)N[C@H](C(=O)N[C@@H](CCN)C(=O)N[C@H]1CCNC(=O)[C@H]([C@@H](C)O)NC(=O)[C@H](CCN)NC(=O)[C@H](CCN)NC(=O)[C@H](CC(C)C)NC(=O)[C@@H](Cc2ccccc2)NC(=O)[C@H](CCN)NC1=O)[C@@H](C)O [PMB, polymyxin B] (X1-[Dab]T[Dab][Dab][Dab][dF]L[Dab][Dab]T; lactam 4-C)
A. 17100

These data points were gathered from paper PMC11047535.
